Cited source: patent US20240360157A1

# tested_system: human JAK1 catalytic kinase (JH1) domain (Homo sapiens (Human), UniProt P23458)
# Sequence (P23458 875-1153): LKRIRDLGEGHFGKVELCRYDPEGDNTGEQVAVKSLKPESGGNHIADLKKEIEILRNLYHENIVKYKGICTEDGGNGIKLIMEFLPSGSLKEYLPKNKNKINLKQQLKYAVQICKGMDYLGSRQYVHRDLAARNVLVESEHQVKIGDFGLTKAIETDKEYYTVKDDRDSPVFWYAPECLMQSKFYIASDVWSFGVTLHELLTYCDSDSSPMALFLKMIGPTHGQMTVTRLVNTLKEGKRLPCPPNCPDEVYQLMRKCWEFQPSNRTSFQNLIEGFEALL
# protocol_details: ADP-Glo Kinase Assay, recombinant JAK1 catalytic kinase (JH1) domain
# Type: biochemical
# condition_label: recombinant JH1 domain 4 nM, 35 μM ATP, JAK3-342 peptide, mean, read-out: JAK1 biochem IC50 (nM) Mean
readout_label: IC50 (nM)
Give the quantity in nM, number only.

Before answering, review these 10 worked examples.
O=C([C@@H]1C[C@H]1F)N1C2CCC1CN(c1ccnn3cc(-c4ncc(F)cn4)cc13)C2 [Example 108]: 909
O=C(C1CC(F)(F)C1)N1C2CCC1CN(c1ncnn3cc(-c4cnn(C(F)F)c4)cc13)C2 [Example 55]: 2790
Cn1ccc(-c2cc3c(N4CC5CCC(C4)N5C(=O)[C@@H]4C[C@H]4F)ccnn3c2)cc1=O [Example 171]: 136
COc1ccc(-c2cc3c(N4CC5CCC(C4)N5C(=O)C4CC4)ncnn3c2)cc1C#N [Example 185]: 2540
O=C(C1CC(F)C1)N1C2CCC1CN(c1ncnn3cc(-c4cnn(C(F)F)c4)cc13)C2 (stereo not shown) [Example 48]: 3780
O=C([C@@H]1C[C@H]1F)N1C2CCC1CN(c1ccnn3cc(-c4ccnc(OC(F)F)c4)cc13)C2 [Example 111]: 62
COc1cc(-c2nc3c(N4CC5CCC(C4)N5C(=O)[C@@H]4C[C@H]4F)ccnc3[nH]2)ccn1 [Example 203]: 19
Cc1cc(-c2cc3c(N4CC5CCC(C4)N5C(=O)[C@@H]4C[C@H]4F)ccnn3c2)on1 [Example 173]: 81
Cc1ccc(-c2cc3c(N4CC5CCC(C4)N5C(=O)[C@@H]4C[C@H]4F)ncnc3[nH]2)cn1 [Example 224]: 234
Cn1cc(-c2cc3c(N4CC5CCC(C4)N5C(=O)[C@@H]4C[C@H]4F)ccnn3c2)ccc1=O [Example 172]: 32

Which IC50 reading was recorded for the compound Cn1cc(-c2cc3c(N4CC5CCC(C4)N5C(=O)[C@H]4C[C@@H]4F)ncnn3c2)cn1 (racemic) [Example 61] ?
992

Entry to check: O=C([C@@H]1C[C@H]1F)N1C2CCC1CN(c1ccnn3cc(-c4ccnnc4)cc13)C2 [Example 109]
38

Entry to check: Cn1cc(-c2nc3c(N4CC5CCC(C4)N5C(=O)C4CC4)ccnc3[nH]2)cn1 [Example 199]
92

Entry to check: Cn1cc(-c2cc3c(N4CC5CCC(C4)N5C(=O)C4CC4)ccnc3[nH]2)cn1 [Example 236]
145

Entry to check: O=C(C1CC1)N1C2CCC1CN(c1c(F)cnn3cc(-c4cnn(C(F)F)c4)cc13)C2 [Example 140]
834

Entry to check: COc1cc(-c2cc3c(N4CC5CCC(C4)N5C(=O)[C@@H]4C[C@H]4F)ncnc3[nH]2)ccn1 [Example 231]
115

Entry to check: Cn1cc(-c2nc3c(N4CC5CCC(C4)N5S(=O)(=O)C4CC4)ccnc3[nH]2)cn1 [Example 195]
194
